# tested.on: Torsin-1A (Homo sapiens)
# assay.text: torsin A binders from cell lysate, primary screen, small-molecule microarray, wild-type, 635/667 nm (AID 1149)
# particulars: COS7 hTOR1A-WT lysate, 635 nm fluorescence, higher = more signal
Classify as follows. Reported composite z-score greater than or equal to 0.4: yes (1). Reported composite z-score below: no (0).

// known answers, use as guide
compound	label.class
CCOC(=O)C[C@H]1[C@H](OC(=O)Cc2ccc3c(c2)OCO3)[C@@H](NC(=O)c2ccccc2)c2cc(OCCCO)ccc2N1C(=O)Cc1ccc(OC)cc1	yes (1)
CN(C)C(=O)[C@]1(Cc2ccccc2CN=[N+]=[N-])N=C(c2ccc(OCCCO)cc2)O[C@@H]1c1ccccc1N=[N+]=[N-]	no (0)
C[C@H]1NC(=O)C([C@@H](C)OCc2ccccc2)NC(=O)[C@@]23C(=O)N[C@@H](Cc4ccccc4)C2[C@H](C)[C@@]2(C)O[C@H]2C3/C=C/C/C=C\CNC1=O (stereo partly drawn)	no (0)

Prompt: Does the compound `CC(C)=CCN(C(=O)C#Cc1ccccc1)[C@H](CO)c1ccccc1` have recorded composite z-score that is 0.4 or more?
Completion: yes (1)

Prompt: Does the compound `CCCCC(=C=CC[C@@H](O)c1ccc(OCCO)cc1)C[C@@H](O)c1ccccn1` have recorded composite z-score that is 0.4 or more?
Completion: yes (1)

Prompt: Does the compound `COC(=O)[C@@]1(Cc2ccc(F)cc2)[C@H]2c3cc(C(=O)N4CCCC4)n(CCO)c3C[C@H]2CN1C(=O)c1ccccc1` have recorded composite z-score that is 0.4 or more?
Completion: no (0)

Prompt: Does the compound `COc1ccccc1CN1C(=O)c2ccccc2[C@](Cc2ccccc2I)(C(=O)NCCCN(C)C)[C@@H]1c1ccc(CO)cc1` have recorded composite z-score that is 0.4 or more?
Completion: no (0)

Prompt: Does the compound COc1cc2c(cc1O)C(c1ccc(CN3CCCC3)cc1)N(Cc1ccc([N+](=O)[O-])o1)CC2 (stereo not drawn) have recorded composite z-score that is 0.4 or more?
Completion: yes (1)

====

# assay.text: CREB reporter modulators under forskolin, primary screen, cell-based, PC12, CRE-LacZ reporter, forskolin-stimulated (AID 1146);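 further: PC12 cells with 6xCRE LacZ reporter stimulated by forskolin 10 µM; beta-galactosidase reporter signal reflecting CREB driven transcription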
# particulars: luminescence, 4.5 h, higher = more signal, called active from +8 up or from −8 down
The reader will find reported z-score values listed item by item below.
I only need the number, thanks.

Use these answered entries as a reference point.
molecule	z-score
CC(C)CNC(=O)[C@@H]1c2ccccc2C(=O)N(C(C)C)[C@H]1c1ccc(CO)cc1	-0.739
O=C(NCCO)C1=C[C@H](Oc2ccccc2I)[C@@H](O)[C@H](NCc2ccc(F)cc2)C1	0.925
C=CC[C@@]1(C(=O)N(C)C)N=C(c2ccc(OCCCO)cc2)O[C@@H]1c1ccccc1	0.535
C=C(C(=O)CC[C@@H](OC(C)=O)c1cccc(OCCO)c1)C(C)C	1.23

Prompt: Dear colleague, please send me the reported z-score for `O=c1cccc(-c2ccccc2C(F)(F)F)o1` when you can.
Completion: -0.12

Prompt: Dear colleague, please send me the reported z-score for `CCCC[C@@H](O)C1=C(COC)Cn2c(=O)n(-c3ccccc3)c(=O)n2[C@H]1CO` when you can.
Completion: -1.11

Prompt: Dear colleague, please send me the reported z-score for `CC(C)CNC(=O)[C@@H]1c2ccccc2C(=O)N(C2Cc3ccccc3C2)[C@H]1c1ccc(CO)cc1` when you can.
Completion: -0.748

Prompt: Dear colleague, please send me the reported z-score for `C#CCN=C(N)N` when you can.
Completion: -0.055

Prompt: Dear colleague, please send me the reported z-score for `CCOC(=O)C1=C(C(=O)OCC)N(S(=O)(=O)CC[Si](C)(C)C)[C@H](c2ccccc2)CC1` when you can.
Completion: 0.207

Prompt: Dear colleague, please send me the reported z-score for CC(C)C[C@H]1NC(=O)[C@H](Cc2ccccc2)NC(=O)[C@@]23C(=O)N[C@@H](Cc4ccccc4)C2[C@H](C)[C@@]2(C)O[C@H]2C3/C=C/C/C=C\CNC1=O (some centres not stated) when you can.
Completion: 0.105

Prompt: Dear colleague, please send me the reported z-score for `COCCn1c(C(=O)N2CCCC2)cc2c1C[C@H]1CN(C(=O)c3ccccc3)[C@@](Cc3ccccc3)(C(=O)OC)[C@@H]21` when you can.
Completion: -0.034

Prompt: Dear colleague, please send me the reported z-score for N#Cc1ccc(C(O)C2C=CC3C(=O)NC(=O)C3N2Nc2ccccn2)cc1 (configuration not stated) when you can.
Completion: -0.345

Prompt: Dear colleague, please send me the reported z-score for `CCOC(=O)C1=CC[C@@H](c2ccccc2)N(S(=O)(=O)C[Si](C)(C)C)[C@H]1c1ccccc1` when you can.
Completion: 1.56

Prompt: Dear colleague, please send me the reported z-score for `C=CCNC(=O)[C@@H]1[C@H]2C(=O)O[C@H](c3ccccc3)[C@H](c3ccccc3)N2[C@H](c2ccccc2OCCO)[C@@]12C(=O)N(C(=O)OCCOC)c1ccc(C#CCCO)cc12` when you can.
Completion: -0.466

Prompt: Dear colleague, please send me the reported z-score for `CC(C)C[C@@H]1NC(=O)[C@H]2C[C@@H](C(=O)NCCCCCNC(=O)CS)[C@@H](c3ccc(O)cc3)N2C1=O` when you can.
Completion: -0.908

Prompt: Dear colleague, please send me the reported z-score for `CCOC(=O)C[C@H]1[C@H](OC(=O)c2ccc(-c3ccccc3)cc2)[C@@H](NC(=O)CC(C)C)c2cc(OCCCO)ccc2N1C(=O)Cc1ccc(OC)cc1` when you can.
Completion: -0.163

Prompt: Dear colleague, please send me the reported z-score for COc1cc2c(cc1O)C(C1CC1)N(Cc1ccc([N+](=O)[O-])o1)CC2 (configuration not stated) when you can.
Completion: 0.786
